Hello, the source for this data is patent US8409560B2, in case you need it.

Test: Solubility of compound 1 (previously determined)
Format: physicochemical
Settings: water, pH 6.8, aqueous buffer; pH of 6.8; read-out: solubility in water
measured-quantity: solubility

Record summary for `O=C(CC(c1ccccc1)c1ccccc1)N1CCN(C(c2ccccc2)c2ccccc2)CC1` : reported solubility = 0.2 to 2 µg/mL

====

Assay: Caco-2 apparent intestinal permeability
Type: in vitro ADME
Conditions: Caco-2, pH 7.4, Cell-free; 1 μM; read-out: Percent Recovery
measured-quantity: recovery at 60 min, 1 μM (%)
Entry rule: numbers only, all in %.

Record summary for O=C(CC(c1ccccc1)c1ccccc1)N1CCN(C(c2ccccc2)c2ccccc2)CC1 [Compound 1] : reported recovery at 60 min, 1 μM = 54
